Molecular target: T1, IL-10 receptor (IL-10R: IL10RA and IL10RB) on HEK-Blue IL-10 reporter cells (UniProt Q13651 22-578; Q08334 20-325, limits assumed)
T1 sequence (looked up) 1: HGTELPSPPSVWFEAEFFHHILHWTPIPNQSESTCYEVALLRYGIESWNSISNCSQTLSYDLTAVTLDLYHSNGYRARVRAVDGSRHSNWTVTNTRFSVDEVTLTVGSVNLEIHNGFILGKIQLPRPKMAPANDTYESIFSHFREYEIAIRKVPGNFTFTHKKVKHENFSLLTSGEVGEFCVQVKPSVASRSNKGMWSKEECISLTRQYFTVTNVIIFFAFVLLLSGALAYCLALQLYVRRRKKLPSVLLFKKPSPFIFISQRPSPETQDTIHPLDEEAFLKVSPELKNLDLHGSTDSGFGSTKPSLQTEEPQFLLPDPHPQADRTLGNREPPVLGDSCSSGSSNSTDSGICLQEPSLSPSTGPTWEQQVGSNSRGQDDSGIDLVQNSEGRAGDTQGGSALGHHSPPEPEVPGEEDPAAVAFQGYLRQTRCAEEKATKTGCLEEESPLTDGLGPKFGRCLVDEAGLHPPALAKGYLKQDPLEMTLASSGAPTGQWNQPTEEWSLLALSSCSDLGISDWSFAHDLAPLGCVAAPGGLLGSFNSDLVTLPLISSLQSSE
T1 sequence (looked up) 2: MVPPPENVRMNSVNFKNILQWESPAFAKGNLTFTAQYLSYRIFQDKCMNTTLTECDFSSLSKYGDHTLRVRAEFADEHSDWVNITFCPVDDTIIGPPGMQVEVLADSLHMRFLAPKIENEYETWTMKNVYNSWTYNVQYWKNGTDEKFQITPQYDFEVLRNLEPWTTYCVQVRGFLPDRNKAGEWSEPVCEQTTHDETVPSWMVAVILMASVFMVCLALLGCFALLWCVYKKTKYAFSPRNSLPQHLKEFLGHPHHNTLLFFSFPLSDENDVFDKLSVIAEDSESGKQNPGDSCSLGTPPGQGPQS
Test: cell-based or functional assay
OUTCOME MEASURE: EC-50, HEK-Blue IL-10 reporter cells

Requested read-out: EC-50, HEK-Blue IL-10 reporter cells. Entry: ORK10-005 (ligand) MTQSENSCTHFPGNLPNMLRDLRDAFSRVKTFFQMKDQLDNLLLKESLLEDFKGYLGCQALSEMIQFYLEEVMPQAENQDPDIKAHVNSLGENLKTLRLRLRRCHRFLPCENKSKAVEQVKNAFNKLQEKGIYKAMSEFDIFINYIEAKDKDIRDGDELANMLRDLRDAFSRVKTFFQMKDQLDNLLLKESLLEDFKGYLGCQALSEMIQFYLEEVMPQAENQDPDIKAHVNSLGENLKTLRLRLRRCHRFLPCENKSKAVEQVKNAFNKLQEKGIYKAMSEFDIFINYIEAYMTM
6.25e-10

Consider now this further binder.
Bench note: what EC-50, HEK-Blue IL-10 reporter cells did ORK10-003 (ligand) MTQSENSCTHFPGNLPNMLRDLRDAFSRVKTFFQMKDQLDNLLLKESLLEDFKGYLGCQALSEMIQFYLEEVMPQAENQDPDIKAHVNSLGENLKTLRLRLRRCHRFLPCENKSKAVEQVKNAFNKLQEKGIYKAMSEFDIFINYIEAYLYKTITPEFANMLRDLRDAFSRVKTFFQMKDQLDNLLLKESLLEDFKGYLGCQALSEMIQFYLEEVMPQAENQDPDIKAHVNSLGENLKTLRLRLRRCHRFLPCENKSKAVEQVKNAFNKLQEKGIYKAMSEFDIFINYIEAYMTM show?
2.3e-10
